- TEST_SYSTEM: Muscarinic acetylcholine receptor M1 (Homo sapiens) (UniProt P11229)
- Sequence (P11229 whole entry, looked up): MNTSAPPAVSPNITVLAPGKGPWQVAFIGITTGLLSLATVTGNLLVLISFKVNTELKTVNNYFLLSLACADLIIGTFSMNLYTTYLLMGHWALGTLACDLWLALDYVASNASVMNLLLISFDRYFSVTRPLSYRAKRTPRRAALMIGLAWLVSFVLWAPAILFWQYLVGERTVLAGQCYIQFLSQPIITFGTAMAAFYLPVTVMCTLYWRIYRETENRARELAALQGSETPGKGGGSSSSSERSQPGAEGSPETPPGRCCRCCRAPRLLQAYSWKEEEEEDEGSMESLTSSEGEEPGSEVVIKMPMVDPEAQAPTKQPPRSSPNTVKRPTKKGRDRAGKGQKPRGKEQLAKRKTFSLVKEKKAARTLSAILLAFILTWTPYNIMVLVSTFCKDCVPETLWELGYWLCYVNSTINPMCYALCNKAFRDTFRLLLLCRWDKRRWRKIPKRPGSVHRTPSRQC
- ASSAY_NOTES: CHRM1 PAMs potentiating acetylcholine calcium signal – CHO-K1 cells, Fluo-8 calcium fluorescence, 1536-well, primary screen (AID 588819)
- EXPERIMENTAL_CONTEXT: CHO-K1 hM1, Fluo-8 calcium fluorescence, ACh EC20; at 3 µM; hits give high values; 0% = ACh EC20, 100% = maximal ACh
In all, about 360,000 compounds went through this assay and about 320 (0.089%) were called active. Many of the other results were omitted from the sample, so actives are more common in it than they were.
PARAMETER_MEASURED: activation (%)

{"MOLECULE": "O=C(NCc1ccccc1)C1=C[C@@H](c2ccccc2)C[C@@H](OCCCCO)O1", "TEST_SYSTEM": "Muscarinic acetylcholine receptor M1 (Homo sapiens) (UniProt P11229)", "MEASURE_UNIT": "%", "OBS_VALUE": 19.5}
{"MOLECULE": "Cc1cccc(Nc2ccccc2C(=O)NCc2ccco2)c1C", "TEST_SYSTEM": "Muscarinic acetylcholine receptor M1 (Homo sapiens) (UniProt P11229)", "MEASURE_UNIT": "%", "OBS_VALUE": -3.33}
{"MOLECULE": "CCn1c(SC(C)C(=O)Nc2ccc(N3CCOCC3)cc2)nnc1-c1ccco1 (stereo unspecified)", "TEST_SYSTEM": "Muscarinic acetylcholine receptor M1 (Homo sapiens) (UniProt P11229)", "MEASURE_UNIT": "%", "OBS_VALUE": 5.42}
{"MOLECULE": "COc1cc(C(=O)N(C)Cc2cccc(OC)c2OC)ccc1OCC(=O)Nc1cccc(C(F)(F)F)c1", "TEST_SYSTEM": "Muscarinic acetylcholine receptor M1 (Homo sapiens) (UniProt P11229)", "MEASURE_UNIT": "%", "OBS_VALUE": -5.88}
{"MOLECULE": "O=c1c2c(ncn1Cc1ccccc1)nc1n2CCC1", "TEST_SYSTEM": "Muscarinic acetylcholine receptor M1 (Homo sapiens) (UniProt P11229)", "MEASURE_UNIT": "%", "OBS_VALUE": 7.79}
{"MOLECULE": "CCCC(=O)N1CCC1(C)C(=O)NCc1ccc(SC)cc1 (stereo unspecified)", "TEST_SYSTEM": "Muscarinic acetylcholine receptor M1 (Homo sapiens) (UniProt P11229)", "MEASURE_UNIT": "%", "OBS_VALUE": 3.92}

----------
- TEST_SYSTEM: Muscarinic acetylcholine receptor M1 (Homo sapiens) (UniProt P11229)
- ASSAY_NOTES: CHRM1 PAMs potentiating acetylcholine calcium signal – CHO-K1 cells, Fluo-8 calcium fluorescence, 1536-well, primary screen (AID 588819)
- EXPERIMENTAL_CONTEXT: CHO-K1 hM1, Fluo-8 calcium fluorescence, ACh EC20; at 3 µM; 0% = ACh EC20, 100% = maximal ACh
Screen size: about 360,000 compounds; about 320 (0.089%) were called active. No stated cut-off is given here; in the data, active means activation above about 19% (passing the limit was not always enough); inactive means the rest. The full list was thinned out, with actives kept by preference.
Classes used: active, inactive

{"COMPOUND": "Cc1ccc(NC(=O)Cn2cccc2C2=NC(c3ccccc3)CO2)c(C)c1 (configuration not stated)", "TEST_SYSTEM": "Muscarinic acetylcholine receptor M1 (Homo sapiens) (UniProt P11229)", "DISCRETE_LABEL": "inactive"}
{"COMPOUND": "CN(c1ccccc1)S(=O)(=O)c1cccc(C(=O)NNC(=O)c2ccncc2)c1", "TEST_SYSTEM": "Muscarinic acetylcholine receptor M1 (Homo sapiens) (UniProt P11229)", "DISCRETE_LABEL": "inactive"}
{"COMPOUND": "O=C(CCC(=O)N1CCN(S(=O)(=O)c2ccc(Cl)cc2)CC1)NCc1cccc(C(F)(F)F)c1", "TEST_SYSTEM": "Muscarinic acetylcholine receptor M1 (Homo sapiens) (UniProt P11229)", "DISCRETE_LABEL": "inactive"}
{"COMPOUND": "CCCC(C)NC(=O)C1CCN(C(=O)C2CC(=O)N(c3ccc(C)cc3)C2)CC1 (configuration not stated)", "TEST_SYSTEM": "Muscarinic acetylcholine receptor M1 (Homo sapiens) (UniProt P11229)", "DISCRETE_LABEL": "inactive"}
{"COMPOUND": "CCCSC(=S)NC1CCS(=O)(=O)C1 (configuration not stated)", "TEST_SYSTEM": "Muscarinic acetylcholine receptor M1 (Homo sapiens) (UniProt P11229)", "DISCRETE_LABEL": "inactive"}
{"COMPOUND": "CN(C(=O)c1cccc(NC(=O)Cc2ccc(NC(=O)C3CCN(C(=O)C4CCCCC4)CC3)cc2)c1)C1CCC1", "TEST_SYSTEM": "Muscarinic acetylcholine receptor M1 (Homo sapiens) (UniProt P11229)", "DISCRETE_LABEL": "inactive"}
{"COMPOUND": "O=C(O)C1CCN(S(=O)(=O)N2CCOCC2)CC1", "TEST_SYSTEM": "Muscarinic acetylcholine receptor M1 (Homo sapiens) (UniProt P11229)", "DISCRETE_LABEL": "active"}
{"COMPOUND": "COC(=O)c1ccc2nc(-c3ccc(Cl)cc3)c(Cc3cccc(F)c3)n2c1", "TEST_SYSTEM": "Muscarinic acetylcholine receptor M1 (Homo sapiens) (UniProt P11229)", "DISCRETE_LABEL": "inactive"}
{"COMPOUND": "CCCC1NC(=O)NC(C)=C1C(=O)OCC (configuration not stated)", "TEST_SYSTEM": "Muscarinic acetylcholine receptor M1 (Homo sapiens) (UniProt P11229)", "DISCRETE_LABEL": "inactive"}
{"COMPOUND": "COC(=O)c1ccc2nc(-c3ccc(OC)c(OC)c3)c(Cc3ccccc3)n2c1", "TEST_SYSTEM": "Muscarinic acetylcholine receptor M1 (Homo sapiens) (UniProt P11229)", "DISCRETE_LABEL": "inactive"}
{"COMPOUND": "CCOCc1nnc(NC(=O)CSc2ccc(C)cc2)s1", "TEST_SYSTEM": "Muscarinic acetylcholine receptor M1 (Homo sapiens) (UniProt P11229)", "DISCRETE_LABEL": "inactive"}
{"COMPOUND": "COc1ccc(C)cc1NC(=O)CN(C)S(=O)(=O)c1ccc2c(c1)n(C)c(=O)c(=O)n2C", "TEST_SYSTEM": "Muscarinic acetylcholine receptor M1 (Homo sapiens) (UniProt P11229)", "DISCRETE_LABEL": "inactive"}
{"COMPOUND": "COCCNC(=O)C1CCN(C(=O)C2CC(=O)N(c3ccc(C)cc3)C2)CC1 (configuration not stated)", "TEST_SYSTEM": "Muscarinic acetylcholine receptor M1 (Homo sapiens) (UniProt P11229)", "DISCRETE_LABEL": "active"}
{"COMPOUND": "O=C(NCc1ccccc1Cl)C1CCN(S(=O)(=O)N2CCOCC2)CC1", "TEST_SYSTEM": "Muscarinic acetylcholine receptor M1 (Homo sapiens) (UniProt P11229)", "DISCRETE_LABEL": "inactive"}
{"COMPOUND": "COc1ccc(CNC(=O)COC(=O)CCS(=O)(=O)c2ccc(C)cc2)cc1OC", "TEST_SYSTEM": "Muscarinic acetylcholine receptor M1 (Homo sapiens) (UniProt P11229)", "DISCRETE_LABEL": "inactive"}
{"COMPOUND": "CC(=O)N/C(=C/c1ccc(OC(F)F)cc1)C(=O)O", "TEST_SYSTEM": "Muscarinic acetylcholine receptor M1 (Homo sapiens) (UniProt P11229)", "DISCRETE_LABEL": "inactive"}
{"COMPOUND": "O=C(CSc1ccccc1)Nc1nnc(/C=C/c2ccccc2)s1", "TEST_SYSTEM": "Muscarinic acetylcholine receptor M1 (Homo sapiens) (UniProt P11229)", "DISCRETE_LABEL": "active"}
{"COMPOUND": "O=C(/C=C/c1ccccc1)Nc1nnc(SCC(=O)c2ccc3ccccc3c2)s1", "TEST_SYSTEM": "Muscarinic acetylcholine receptor M1 (Homo sapiens) (UniProt P11229)", "DISCRETE_LABEL": "inactive"}
{"COMPOUND": "Oc1cccc(C2c3[nH]c4ccccc4c3CCN2Cc2cnn(-c3ccccc3)c2)c1 (configuration not stated)", "TEST_SYSTEM": "Muscarinic acetylcholine receptor M1 (Homo sapiens) (UniProt P11229)", "DISCRETE_LABEL": "inactive"}
{"COMPOUND": "CCN(CC(=O)Nc1ccc(OC)cc1)C(=O)c1ccc(Cl)c(S(=O)(=O)N2CCCC2)c1", "TEST_SYSTEM": "Muscarinic acetylcholine receptor M1 (Homo sapiens) (UniProt P11229)", "DISCRETE_LABEL": "inactive"}
{"COMPOUND": "CCOCCOC(=O)C1=C(C)NC(=O)NC1c1ccc2c(c1)OCO2 (configuration not stated)", "TEST_SYSTEM": "Muscarinic acetylcholine receptor M1 (Homo sapiens) (UniProt P11229)", "DISCRETE_LABEL": "inactive"}
{"COMPOUND": "CC1CCN(c2ccc([N+](=O)[O-])c(SCCO)c2)CC1", "TEST_SYSTEM": "Muscarinic acetylcholine receptor M1 (Homo sapiens) (UniProt P11229)", "DISCRETE_LABEL": "inactive"}
